target: human mAChRM1 (Homo sapiens, UniProt P11229); construct: host or cells: CHO-K1; test: mAChR M1 cell-based functional assay (calcium mobilization), positive allosteric modulator activity: increase in the EC20 acetylcholine response; details: PAM mode
Sequence (P11229 whole entry): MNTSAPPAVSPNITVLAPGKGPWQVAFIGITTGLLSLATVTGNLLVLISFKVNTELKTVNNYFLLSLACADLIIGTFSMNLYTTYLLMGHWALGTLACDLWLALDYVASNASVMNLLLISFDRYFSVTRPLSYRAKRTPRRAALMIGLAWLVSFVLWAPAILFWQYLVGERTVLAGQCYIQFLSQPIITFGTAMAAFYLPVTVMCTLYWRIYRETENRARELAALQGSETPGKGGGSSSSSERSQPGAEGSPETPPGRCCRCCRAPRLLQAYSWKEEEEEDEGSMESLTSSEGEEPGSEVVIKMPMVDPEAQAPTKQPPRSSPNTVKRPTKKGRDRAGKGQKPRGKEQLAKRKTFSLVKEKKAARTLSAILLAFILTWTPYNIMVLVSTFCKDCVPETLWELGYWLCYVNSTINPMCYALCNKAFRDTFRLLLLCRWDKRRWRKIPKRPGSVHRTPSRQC
Recorded Endpoint: Emax (%)

Cn1cc2c(-c3cc(F)c(CN4Cc5cccc(F)c5C4=O)c(F)c3)ccc(C3(O)COC3)c2n1 [Compound 159]    81
Cn1cc2cc(-c3cc(F)c(CN4Cc5ncccc5C4=O)c(F)c3)cc(C(C)(C)O)c2n1 [Compound 33]    66
C[C@H](c1c(F)cc(-c2ccc(C(C)(C)O)c3nn(C)cc23)cc1F)N1Cc2ncccc2C1=O [Compound 94]    60
CC(C)(O)c1ccc(-c2cc(F)c(CN3Cc4ncccc4C3=O)cc2F)cc1 [Compound 49]    66
Cn1cc2c(-c3cc(Cl)c(CN4Cc5cccnc5C4=O)c(C4CC4)c3)ccc(C(C)(C)O)c2n1 [Compound 134]    76
[2H]C1([2H])c2ncccc2C(=O)N1Cc1c(C)cc(-c2ccc(C(C)(C)O)c3nn(C)cc23)cc1F (single isomer, unassigned) [Compound 144]    89
Cc1cnc2c(c1)C(=O)N(Cc1c(F)cc(-c3ccc(C(C)(C)O)c4nn(C)cc34)cc1F)C2 [Compound 174]    80
[2H]C1([2H])c2ncccc2C(=O)N1Cc1c(F)cc(-c2ccc(C(C)(C)O)c3nn(C)cc23)cc1C1CC1 (single isomer, unassigned) [Compound 143]    83
Cc1cc(-c2ccc(C(C)(C)O)c3ncccc23)cc(F)c1CN1Cc2ncccc2C1=O [Compound 53]    53
Cn1cc2c(-c3cc(F)c(CN4Cc5cccnc5C4=O)c(N4CCC4)c3)ccc(C(C)(C)O)c2n1 [Compound 135]    80
Cn1cc2c(-c3cc(F)c(CN4Cc5ncc(Br)cc5C4=O)c(F)c3)ccc(C(C)(C)O)c2n1 [Compound 173]    75
Cn1cc2c(-c3cc(F)c(CN4Cc5ncccc5C4=O)c(F)c3)ccc(C3(O)CCOCC3)c2n1 [Compound 92]    81
CC(C)(O)c1ccc(-c2ccc(CN3Cc4cccnc4C3=O)cc2)cc1 [Compound 128]    57
Cn1cc2c(-c3cc(F)c(CN4Cc5nccnc5C4=O)c(F)c3)ccc(C(C)(C)O)c2n1 [Compound 138]    67
Cc1c(C(C)(C)O)ccc(-c2cc(F)c(CN3Cc4ncccc4C3=O)c(F)c2)c1F [Compound 56]    50
Cc1cc(-c2ccc(C(C)(C)O)c3nn(C)cc23)ccc1CN1Cc2cccc(F)c2C1=O [Compound 161]    80
[2H]C1([2H])c2ncccc2C(=O)N1Cc1cc(F)c(-c2ccc(C(C)(C)O)c3nn(C)cc23)cc1F [Compound 148]    89
[2H]C([2H])([2H])C(O)(c1ccc(-c2cc(F)c(CN3Cc4cccc(F)c4C3=O)c(F)c2)c2cn(C)nc12)C([2H])([2H])[2H] [Compound 156]    83
CCc1cnc2c(c1)C(=O)N(Cc1c(F)cc(-c3ccc(C(C)(C)O)c4nn(C)cc34)cc1F)C2 [Compound 176]    78
Cc1cc(-c2ccc(C(C)(C)O)c3nn(C)cc23)cc(F)c1CN1Cc2ncccc2C1=O [Compound 2]    87
Cn1cc2c(-c3cc(F)c(CN4Cc5cccc(F)c5C4=O)c(Cl)c3)ccc(C(C)(C)O)c2n1 [Compound 165]    80
CC(C)(O)c1cc2c(-c3cc(F)c(CN4Cc5ncccc5C4=O)c(F)c3)cccn2n1 [Compound 107]    77
Cn1cc2c(-c3cc(F)c(CN4Cc5cccnc5C4=O)c(F)c3)ccc(C(C)(C)O)c2n1 [Compound 121]    88
Cn1cc2c(-c3cc(F)c(CN4Cc5cccc(F)c5C4=O)c(F)c3)ccc(C(C)(O)C(F)F)c2n1 (stereo not drawn) [Compound 158]    77
Cn1cc2c(-c3ccc(CN4Cc5cccc(F)c5C4=O)c(F)c3)ccc(C(C)(C)O)c2n1 [Compound 160]    80
CC(C)(O)c1ccc(-c2cc(F)c(CN3Cc4ncccc4C3=O)c(Cl)c2)cc1 [Compound 45]    66
Cc1cc(-c2cc(C(C)(C)O)cc3nn(C)cc23)cc(F)c1CN1Cc2ncccc2C1=O [Compound 25]    76
Cn1cc2cc(-c3ccc(CN4Cc5cccc(F)c5C4=O)c(F)c3F)cc(C(C)(C)O)c2n1 [Compound 170]    71
Cc1cc(-c2ccc(C(C)(C)O)c3nn(C)cc23)cc(F)c1CN1Cc2cccc(F)c2C1=O [Compound 162]    75
CC(C)(O)c1ccc(-c2cc(F)c(CN3Cc4ncccc4C3=O)c(F)c2)cc1F [Compound 7]    71
